// values below are reported log10 ED50
# Test system: 5-hydroxytryptamine-induced constriction
# Protocol Summary: Inhibition of 5-hydroxytryptamine induced bronchoconstriction in the anaesthetised, artificially respired guinea pig (Konzett-Rossler preparation)
# Format: in vivo
# Run Conditions: Cavia porcellus, iv, read-out: ID50 against 5-hydroxytryptamine-induced constriction
Form field - Quantity: ED50; Unit: µg/kg; Scale: log10

Example results:
# Compound, Reported Measurement
data = [
    ("CCCCCCC(C)(O)CCN1C(=O)N(CC)C(=O)C1CCCCCCC(=O)O (centres unmarked)", 0.76),
    ("CCCCCCCC(C)(O)CCN1C(=O)N(C)C(=O)C1CCCCCCC(=O)O (centres unmarked)", 0.93),
    ("COC(=O)CCCCCCC1C(=O)N(C)C(=O)N1CCC1(O)CCCCC1 (centres unmarked)", 2.34),
    ("CCCCCCCC(C)(O)CCN1C(=O)N(C)C(=O)C1CCCCCCC(=O)OC (centres unmarked)", 0.65),
]

# input for lookup
Recorded result, CCCCCCC(C)(O)CCN1C(=S)N(C)C(=O)C1CCCCCCC(=O)OCC (centres unmarked) , log10 ED50: 0.62

* * *

# Test system: platelet aggregation induced by collagen in human platelet rich plasma
# Protocol Summary: Inhibition of collagen-induced platelet aggregation in vitro in human platelet rich plasma
# Format: cell-based
# Run Conditions: in vitro, read-out: IC50 against collagen-induced aggregation
Reported Metric: pIC50
Value format note: pIC50 is -log10 of concentration (mol/L); just state the number.

response.value for CCC(C)(O)CCN1C(=O)N(C)C(=O)C1CCCCCCC(=O)O (stereo not shown) (field: pIC50) = 5.15

* * *

# Protocol Summary: in vivo
# Set-up: species or system mice
# Run Conditions: mouse, po
Reported Metric: NOAEL

# Compound, NOAEL
rows = [
    ("CCCCCCCC(C)(O)CCN1C(=O)N(C)C(=O)C1CCCCCCC(=O)O (centres unmarked) [Compound 17]", "≥ 300 mg/kg"),
]

# next compound below
Reported NOAEL of CCCCCCC(C)(O)CCN1C(=O)N(C)C(=O)C1CCCCCCC(=O)O (centres unmarked) [Compound 21] : ≥ 900 mg/kg

* * *

# Test system: 5-hydroxytryptamine-induced constriction
# Protocol Summary: Inhibition of 5-hydroxytryptamine induced bronchoconstriction in the anaesthetised, artificially respired guinea pig (Konzett-Rossler preparation)
# Type: in vivo
# Run Conditions: Cavia porcellus, iv, read-out: ID50 against 5-hydroxytryptamine-induced constriction
Param label: returns fulfilled when ED50 < 3 µg/kg, returns not fulfilled otherwise, including exact equality.

Consider the worked cases shown below.
# Compound, Label
measured = [
    ("CCCCC(C)C(C)(O)CCN1C(=O)N(C)C(=O)C1CCCCCCC(=O)O (stereo not drawn)", "not fulfilled"),
    ("CCCCCCC(C)(O)CCN1C(=O)N(C)C(=O)C1CCCCCCC(=O)OCC (stereo not drawn)", "fulfilled"),
    ("CN1C(=O)C(CCCCCCC(=O)O)N(CCC(C)(O)c2ccccc2)C1=O (stereo not drawn)", "not fulfilled"),
    ("CN1C(=O)C(CCCCCCC(=O)O)N(CCC2(O)CCCCC2)C1=O (stereo not drawn)", "not fulfilled"),
    ("CCCCCCC(C)(O)CCN1C(=O)N(CC)C(=O)C1CCCCCCC(=O)OCC (stereo not drawn)", "not fulfilled"),
    ("CCCCCCC(O)CCN1C(=O)N(C)C(=O)C1CCCCCCC(=O)O (stereo not drawn)", "not fulfilled"),
    ("CCCCC(C)C(C)(O)CCN1C(=O)N(C)C(=O)C1CCCCCCC(=O)OC (stereo not drawn)", "not fulfilled"),
    ("CCCCCCC(C)(O)CCN1C(=O)N(C)C(=O)C1CCCCCCC(=O)O (stereo not drawn)", "fulfilled"),
]

Turning now to a further compound:
[ask] Consider CCCCCCC(C)(O)CCN1C(=O)N(C)C(=O)C1CCCCCCC(=O)OC (stereo not drawn) . Does its ED50 lie strictly below 3 µg/kg?
[reply] fulfilled
